Provide the reported melting point of each item.

Please report melting point for every entry that follows.
1. C[C@H]1[C@H](OCCn2nnc3c2CCc2ccccc2-3)O[C@@H]2O[C@@]3(C)CCC4[C@H](C)CC[C@@H]1[C@]42OO3 (stereo partly shown)
2. COc1cc(Cn2nnc3c2CCC(C(=O)O[C@@H]2O[C@@H]4O[C@@]5(C)CCC6[C@H](C)CC[C@@H]([C@H]2C)[C@]64OO5)C3)cc(OC)c1OC (stereo partly shown)
3. C[C@H]1[C@H](OCCn2nnc3c2C[C@@H]2CC[C@@H]4[C@H](CC[C@]5(C)[C@@H](O)CC[C@@H]45)[C@@]2(C)C3)O[C@@H]2O[C@@]3(C)CCC4[C@H](C)CC[C@@H]1[C@]42OO3 (stereo partly shown)
4. C[C@H]1[C@H](OCCn2nncc2-c2ccc(Br)c(Br)c2)O[C@@H]2O[C@@]3(C)CCC4[C@H](C)CC[C@@H]1[C@]42OO3 (stereo partly shown)

1: 104 to 105 °C; 2: 80 to 81 °C; 3: 96 to 97 °C; 4: 105 to 106 °C

---

system: HIV-2 (ROD); test: Anti-HIV-2 (ROD) activity in MT-4 cell cultures, MTT method; assay type: cell-based; settings: Human immunodeficiency virus 2, MT4, read-out: IC50 HIV-2 Strain ROD
pIC50: −log10 of the molar value.
Provide the reported pIC50 of each item.

Some compounds with known pIC50 results, for comparison:
compound	pIC50
COc1cc2c(cc1OC)-c1nnn(CCO[C@@H]3O[C@@H]4O[C@@]5(C)CCC6[C@H](C)CC[C@@H]([C@H]3C)[C@]64OO5)c1CC2 (stereo partly shown)	< 4.67
Cc1cc(C#N)cc(C)c1Oc1nc(Nc2ccc(C#N)cc2)nc(N)c1Br	< 5.64
COc1ccc2c(c1)-c1nnn(CCO[C@@H]3O[C@@H]4O[C@@]5(C)CCC6[C@H](C)CC[C@@H]([C@H]3C)[C@]64OO5)c1CC2 (stereo partly shown)	< 4.83

Now for another entry.
Read off the recorded pIC50 for C[C@H]1[C@H](OCCn2nnc3c2CCc2ccccc2-3)O[C@@H]2O[C@@]3(C)CCC4[C@H](C)CC[C@@H]1[C@]42OO3 (stereo partly shown)
< 4.50

---

Provide the reported CC50 of each item.
experiment: Cytotoxicity in mock-infected MT-4 cell cultures, MTT method; assay type: cell-based; conditions: human; concentration reducing viability of mock-infected MT-4 cell cultures by 50%, MTT method; read-out: CC50

smiles_code	CC50
Cc1ccnc2c1NC(=O)c1cccnc1N2C1CC1	> 15 µM

Now for another entry.
Read off the recorded CC50 for O=C1Nc2ccc(Cl)cc2[C@@](C#CC2CC2)(C(F)(F)F)O1
> 6.3 µM

---

assay: Cytotoxicity in mock-infected MT-4 cell cultures, MTT method; type: cell-based; conditions: human, mock-infected MT-4 cells; concentration reducing viability of mock-infected MT-4 cell cultures by 50%, MTT method; read-out: CC50
metric: CC50 (µM)
Answers are plain numbers, in µM.

molecule	reading_unit	endpoint_result
C[C@H]1[C@H](OCCn2nnc3c2CCc2ccccc2-3)O[C@@H]2O[C@@]3(C)CCC4[C@H](C)CC[C@@H]1[C@]42OO3 (some centres unmarked)	µM	31.5
Cc1cc(C#N)cc(C)c1Oc1nc(Nc2ccc(C#N)cc2)nc(N)c1Br	µM	2.29

Please report CC50 for every entry that follows.
1. COc1cc2c(cc1OC)-c1nnn(CCO[C@@H]3O[C@@H]4O[C@@]5(C)CCC6[C@H](C)CC[C@@H]([C@H]3C)[C@]64OO5)c1CC2 (some centres unmarked)
2. COc1ccc2c(c1)-c1nnn(CCO[C@@H]3O[C@@H]4O[C@@]5(C)CCC6[C@H](C)CC[C@@H]([C@H]3C)[C@]64OO5)c1CC2 (some centres unmarked)

1: 21.2; 2: 14.9
